Biological target: PKR R510Q (Homo sapiens, UniProt P30613, R510Q)
Sequence (P30613 whole entry R510Q): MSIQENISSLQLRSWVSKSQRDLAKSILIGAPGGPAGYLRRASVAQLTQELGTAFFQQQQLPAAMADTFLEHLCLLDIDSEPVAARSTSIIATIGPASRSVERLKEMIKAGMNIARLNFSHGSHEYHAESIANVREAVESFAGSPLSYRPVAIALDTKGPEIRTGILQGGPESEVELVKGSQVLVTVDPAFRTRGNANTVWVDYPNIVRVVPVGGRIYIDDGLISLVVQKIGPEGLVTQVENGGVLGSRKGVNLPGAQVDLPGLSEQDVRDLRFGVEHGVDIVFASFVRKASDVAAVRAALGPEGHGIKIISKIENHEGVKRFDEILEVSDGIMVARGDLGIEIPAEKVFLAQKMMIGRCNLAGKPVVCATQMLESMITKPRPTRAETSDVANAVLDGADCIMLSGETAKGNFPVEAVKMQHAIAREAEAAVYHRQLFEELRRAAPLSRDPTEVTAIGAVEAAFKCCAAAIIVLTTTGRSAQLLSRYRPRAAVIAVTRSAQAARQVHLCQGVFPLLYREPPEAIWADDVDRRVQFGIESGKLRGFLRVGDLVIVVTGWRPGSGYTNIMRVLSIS
Assay: PKR mutant assay (R510Q), AC50, LDH/NADH-coupled, absorbance at 340 nm
Assay type: biochemical
Details: Table 2; enzyme assay; read-out: PK R510Q AC50
Please provide measured AC50 for the entries that follow.

Please state recorded AC50 (tested on PKR R510Q (Homo sapiens, UniProt P30613, R510Q)) of `Cc1nc2c(s1)c1cnn(Cc3ccc4nn[nH]c4c3)c(=O)c1n2C`
> 800 nM

Entry to check: `CSc1nc2c(s1)c1cnn(Cc3cccc4sc(N)nc34)c(=O)c1n2C`
< 300 nM

Entry to check: `Cc1nc2c(s1)c1cnn(Cc3ccc(N)cc3)c(=O)c1n2C`
> 800 nM

Entry to check: `CSc1nc2c(s1)c1cnn(Cc3csc(-n4c(C)ccc4C)n3)c(=O)c1n2C`
> 800 nM

Entry to check: `COc1cccc(Cn2ncc3c4sc(Cc5ccc(F)cc5)nc4n(C)c3c2=O)c1`
< 300 nM

Entry to check: `Cn1c2nc(CN)sc2c2cnn(Cc3cccc4[nH]ncc34)c(=O)c21`
301 to 800 nM

Entry to check: `CC(=O)NCc1nc2c(s1)c1cnn(Cc3cccc4[nH]ncc34)c(=O)c1n2C`
< 300 nM

Entry to check: `Cc1nc2c(s1)c1cnn(Cc3ccc(F)cc3)c(=O)c1n2C`
< 300 nM

Entry to check: `CSc1nc2c(s1)c1cnn(Cc3cccc(C(C)(C)O)c3)c(=O)c1n2C`
< 300 nM

---

Molecular target: UniProt:P30613
Assay: PKR (wild type) enzyme AC50 assay, LDH/NADH-coupled, absorbance at 340 nm
Assay type: biochemical
Settings: Table 4; AC50, enzyme assay; read-out: PKR WT
measured-metric: EC50

Look at this compound and give its reported EC50. `Cn1c2nc(Cc3cc[nH]n3)sc2c2cnn(Cc3cccc4sc(N)nc34)c(=O)c21`
< 300 nM

Entry to check: `Cn1c2nc(Cc3cc[nH]n3)sc2c2cnn(CCc3cccc(N)n3)c(=O)c21`
< 300 nM

Entry to check: `Cn1c2nc(Cc3cc[nH]n3)sc2c2cnn(CCc3cccnc3)c(=O)c21`
> 800 nM

Entry to check: `Cn1c2nc(Cc3nc[nH]n3)sc2c2cnn(Cc3cccc4[nH]ncc34)c(=O)c21`
< 300 nM

---

Target: wild type PKR (Homo sapiens)
Sequence (P30613 whole entry): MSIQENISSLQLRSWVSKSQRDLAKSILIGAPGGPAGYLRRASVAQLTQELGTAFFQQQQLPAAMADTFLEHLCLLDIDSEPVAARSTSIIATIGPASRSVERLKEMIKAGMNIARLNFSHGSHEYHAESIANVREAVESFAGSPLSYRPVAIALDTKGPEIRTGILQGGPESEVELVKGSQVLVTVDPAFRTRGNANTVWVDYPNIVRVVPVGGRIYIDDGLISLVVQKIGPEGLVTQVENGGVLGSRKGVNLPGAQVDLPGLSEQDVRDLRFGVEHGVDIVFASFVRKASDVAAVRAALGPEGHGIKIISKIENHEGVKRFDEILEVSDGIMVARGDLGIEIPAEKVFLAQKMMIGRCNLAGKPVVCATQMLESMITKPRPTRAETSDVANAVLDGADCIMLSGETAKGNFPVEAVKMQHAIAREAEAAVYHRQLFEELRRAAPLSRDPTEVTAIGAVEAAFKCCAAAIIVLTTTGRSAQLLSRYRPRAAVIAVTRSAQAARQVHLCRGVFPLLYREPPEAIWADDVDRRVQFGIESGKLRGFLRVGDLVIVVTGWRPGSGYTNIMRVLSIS
Test: Cell based ATP assay in purified red blood cells (Cell-Titer-Glo)
Parameters: endogenous in cells; host or cells: purified red blood cells from healthy volunteers
Details: Table 2; RBCs, overnight at 37° C., ATP levels
measured-metric: AC50

Please state recorded AC50 (tested on wild type PKR (Homo sapiens)) of COc1cccc(Cn2ncc3c4sc(C(C)(C)O)nc4n(C)c3c2=O)c1 [Compound 63]
> 1 µM

Entry to check: CSc1nc2c(s1)c1cnn(Cc3cccc(C(C)(C)O)c3)c(=O)c1n2C [Compound 85]
≤ 1 µM

Entry to check: Cn1c2nc(Cc3cc[nH]n3)sc2c2cnn(Cc3ccc4ccccc4n3)c(=O)c21 [Compound 111]
≤ 1 µM

Entry to check: Cn1c2nc(C(N)=O)sc2c2cnn(Cc3cccc(N)n3)c(=O)c21 [Compound 158]
≤ 1 µM

Entry to check: Cn1c2nc(NC(=O)Cc3cc[nH]n3)sc2c2cnn(Cc3cccc4[nH]ncc34)c(=O)c21 [Compound 180]
> 1 µM

Entry to check: COc1cccc(Cn2ncc3c4sc(C)nc4n(C)c3c2=O)n1 [Compound 27]
≤ 1 µM

Entry to check: CC(c1ccccc1)c1nc2c(s1)c1cnn(Cc3cccc4[nH]ncc34)c(=O)c1n2C (centres unmarked) [Compound 119]
≤ 1 µM

Entry to check: Cn1c2nc([S+](C)[O-])sc2c2cnn(Cc3ccc4ccccc4n3)c(=O)c21 (centres unmarked) [Compound 102]
≤ 1 µM
